Source of measurements: ChEMBL document CHEMBL5442219

system: Histamine H4 receptor (Homo sapiens) (UniProt Q9H3N8)
Sequence (Q9H3N8 whole entry): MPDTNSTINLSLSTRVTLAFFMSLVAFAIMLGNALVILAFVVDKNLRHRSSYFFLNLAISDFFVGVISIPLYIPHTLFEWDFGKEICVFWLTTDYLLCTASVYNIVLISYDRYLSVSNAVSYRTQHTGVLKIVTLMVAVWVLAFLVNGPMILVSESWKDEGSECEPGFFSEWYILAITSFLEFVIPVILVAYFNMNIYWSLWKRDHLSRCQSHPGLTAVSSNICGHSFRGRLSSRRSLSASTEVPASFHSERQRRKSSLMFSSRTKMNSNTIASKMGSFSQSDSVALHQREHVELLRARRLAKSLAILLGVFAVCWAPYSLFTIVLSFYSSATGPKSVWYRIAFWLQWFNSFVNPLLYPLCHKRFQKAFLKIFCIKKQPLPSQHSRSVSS
experimentalSetup: Compound concentration 10 µM; call rule not given here
Possible outcomes: 1.0 for active, 0.0 for inactive

{"compound": "NCCc1c[nH]c2ccc(C(N)=O)cc12", "assignedClass": 0.0}
{"compound": "COc1ccccc1CN[C@H]1C2CCN(CC2)[C@H]1C(c1ccccc1)c1ccccc1", "assignedClass": 0.0}
{"compound": "O=C(Nc1ccc(Cl)cc1)Nc1cccc(-c2cccc(N3CCCC3)n2)c1", "assignedClass": 0.0}
{"compound": "CC(C)NCC(O)COc1cccc2[nH]ccc12 (stereo not drawn)", "assignedClass": 0.0}
{"compound": "CCCCN1CCC(COC(=O)c2cc(Cl)c(N)c3c2OCCO3)CC1", "assignedClass": 0.0}
{"compound": "N#Cc1c(N)nc(SCc2csc(-c3ccc(Cl)cc3)n2)c(C#N)c1-c1ccc(OCCO)cc1", "assignedClass": 0.0}
{"compound": "CCCCCNC(=N)N/N=C/c1c[nH]c2ccc(OC)cc12", "assignedClass": 0.0}
{"compound": "CN(C)C(=O)C(CCN1CCC(O)(c2ccc(Cl)cc2)CC1)(c1ccccc1)c1ccccc1", "assignedClass": 0.0}
{"compound": "NC(=O)[C@@H]1CCCN1C(=O)[C@H](Cc1c[nH]cn1)NC(=O)[C@@H]1CCC(=O)N1", "assignedClass": 0.0}
{"compound": "Clc1ccc(CCCOCCCN2CCCCC2)cc1", "assignedClass": 0.0}
{"compound": "N#Cc1c(N)nc(SCC(N)=O)c(C#N)c1-c1ccc(OCC2CC2)cc1", "assignedClass": 0.0}
{"compound": "Cc1nnn(-c2ccc(-c3ccc(C4(C(=O)O)CC4)cc3)cc2)c1NC(=O)O[C@H](C)c1ccccc1", "assignedClass": 0.0}
{"compound": "COc1cccc([C@H](O)C2CCN(CCc3ccc(F)cc3)CC2)c1OC", "assignedClass": 0.0}
{"compound": "COc1ccc2cc(S(=O)(=O)N[C@H](CC(=O)N[C@H](Cc3ccc(CN4[C@H](C)CCC[C@@H]4C)cc3)C(=O)N(C)C(C)C)c3ccc4c(c3)OCO4)ccc2c1", "assignedClass": 0.0}
{"compound": "CNC[C@H](O)c1cccc(O)c1", "assignedClass": 0.0}
{"compound": "CN1C[C@H](C(=O)N[C@]2(C)O[C@@]3(O)[C@@H]4CCCN4C(=O)[C@H](Cc4ccccc4)N3C2=O)C[C@@H]2c3cccc4[nH]cc(c34)C[C@H]21", "assignedClass": 0.0}
{"compound": "CC(C)(N)C(=O)N[C@H](COCc1ccccc1)C(=O)N1CCC2(CC1)CN(S(C)(=O)=O)c1ccccc12", "assignedClass": 0.0}
{"compound": "Cc1nc(-c2ccc(C(F)(F)F)cc2)sc1COc1ccc([C@H](CC(=O)O)c2ccon2)cc1", "assignedClass": 0.0}
{"compound": "CN1CCC(=C2c3ccccc3CC(=O)c3sccc32)CC1", "assignedClass": 0.0}
{"compound": "N#Cc1c[nH]c2c(C(=O)N3CCN(CCc4ccc(F)cc4)CC3)cccc12", "assignedClass": 0.0}
{"compound": "CCCCN(CCCC)C(=O)CN1C[C@@H](c2ccc3c(c2)OCO3)[C@H](C(=O)O)[C@H]1c1ccc(OC)cc1", "assignedClass": 0.0}
{"compound": "CC1=C2C[C@H]3[C@@H](CC=C4C[C@@H](O)CC[C@@]43C)[C@@H]2CC[C@]12O[C@@H]1C[C@H](C)CN[C@H]1[C@H]2C", "assignedClass": 0.0}
{"compound": "O=C(Cc1ccccc1)Nc1nc2ccc(Cl)cc2c2nc(-c3ccco3)nn12", "assignedClass": 0.0}
{"compound": "Cc1csc(NC(=O)c2cc(F)cc(Oc3cncnc3)c2)n1", "assignedClass": 0.0}
{"compound": "CC(C)NC(=O)c1ccc(C#Cc2ccncc2)cn1", "assignedClass": 0.0}
{"compound": "COc1ccc(OC(F)(F)F)cc1CN[C@H]1CCCN[C@H]1c1ccccc1", "assignedClass": 0.0}
{"compound": "CN1CC(=O)N=C1NC(=O)Nc1cccc(Cl)c1", "assignedClass": 0.0}
{"compound": "Cc1c(C2=CCN(C(=O)N(C)C(C)C)CC2)nnn1-c1cccnc1F", "assignedClass": 0.0}
{"compound": "COC(=O)C1=C(C)NC(C)=C(C(=O)OCCCN2CCC(c3ccccc3)(c3ccccc3)CC2)[C@H]1c1cccc([N+](=O)[O-])c1", "assignedClass": 0.0}
{"compound": "CN(C)S(=O)(=O)c1ccc(NC(=S)N2CCC(C(O)(c3ccccc3)c3ccccc3)CC2)cc1", "assignedClass": 0.0}
{"compound": "O=C1N/C(=N/c2ccccc2F)S/C1=C\\c1ccc(C(=O)O)cc1", "assignedClass": 0.0}
{"compound": "C[C@@H](N)Cc1c[nH]cn1", "assignedClass": 1.0}
{"compound": "Nc1nc2c(c(N3CCNCC3)n1)CCC1=C2[C@@H]2CCCC[C@@H]2O1", "assignedClass": 1.0}
{"compound": "CC1(C)SSC(C)(C)[C@@H](NC(=O)[C@@H](N)Cc2ccc(O)cc2)C(=O)NCC(=O)N[C@@H](Cc2ccccc2)C(=O)N[C@H]1C(=O)O", "assignedClass": 0.0}
{"compound": "Oc1ccc2c3c1O[C@H]1c4[nH]c5c(c4C[C@@]4(O)[C@@H](C2)N(CC2CC2)CC[C@]314)C[C@@]1(O)[C@H]2Cc3ccc(O)c4c3[C@@]1(CCN2CC1CC1)[C@H]5O4", "assignedClass": 0.0}
{"compound": "CS(=O)(=O)NC[C@H]1CC[C@H](Nc2nc3c(s2)CCSc2ccccc2-3)CC1", "assignedClass": 0.0}
{"compound": "O=c1ccn([C@@H]2O[C@H](COP(=O)(O)OP(=O)(O)OP(=O)(O)O)[C@@H](O)[C@H]2O)c(=O)[nH]1", "assignedClass": 0.0}
{"compound": "COc1ccnc(N2CCC3(CCCN(Cc4c[nH]c5ccccc45)C3=O)CC2)n1", "assignedClass": 0.0}
